biological target: MASP-2 CCP2-SP (Homo sapiens (Human)); experiment: MASP-2 co-crystallization, X-ray crystallography and structure analysis (H-bonds, van der Waals contacts); conditions: Table A2-11
Structures can show the parent of a compound that is named as a salt.
van der Waals contact distance, VAL 653 CG1 to compound atom reference
Answer with the value's number alone.

Some compounds with recorded van der Waals contact distance, VAL 653 CG1 to compound atom:
{"compound": "C[C@H](NC(=O)[C@H](N)CCc1cccc(Cl)c1)C(=O)NCc1ccc(C(=N)N)cc1", "system": "MASP-2 CCP2-SP (Homo sapiens (Human))", "meas_value": 3.84}
{"compound": "C[C@H](NC(=O)[C@@H](CCc1ccccc1)NCCCc1ccc(O)cc1)C(=O)NCc1ccc(C(=N)N)cc1", "system": "MASP-2 CCP2-SP (Homo sapiens (Human))", "meas_value": 3.9}
{"compound": "C[C@H](NC(=O)[C@H](N)C1Cc2ccccc2C1)C(=O)NCc1ccc2nc(N)[nH]c2c1", "system": "MASP-2 CCP2-SP (Homo sapiens (Human))", "meas_value": 3.81}
{"compound": "C[C@H](NC(=O)[C@H]1C[C@@H](c2ccccc2)CCN1)C(=O)NCc1cc(Cl)ccc1O", "system": "MASP-2 CCP2-SP (Homo sapiens (Human))", "meas_value": 3.49}
{"compound": "N=C(N)c1ccc(CNC(=O)[C@@H]2CCN2C(=O)[C@H](NCC(=O)O)C2Cc3ccccc3C2)cc1", "system": "MASP-2 CCP2-SP (Homo sapiens (Human))", "meas_value": 3.9}
{"compound": "Cc1nc(N)ccc1CNC(=O)[C@H](C)NC(=O)[C@H]1C[C@@H](c2ccccc2)CCN1C", "system": "MASP-2 CCP2-SP (Homo sapiens (Human))", "meas_value": 3.38}
{"compound": "Cc1nc(N)ccc1CNC(=O)[C@H](C)NC(=O)[C@H]1C[C@@H](c2cccc3ccccc23)CCN1", "system": "MASP-2 CCP2-SP (Homo sapiens (Human))", "meas_value": 3.22}
{"compound": "Cc1nc(N)ccc1CNC(=O)[C@H](C)NC(=O)[C@H]1C[C@@H](Cc2ccccc2)CCN1", "system": "MASP-2 CCP2-SP (Homo sapiens (Human))", "meas_value": 3.3}

Problem: Indicate the recorded van der Waals contact distance, VAL 653 CG1 to compound atom value for this compound: Cc1nc(N)ccc1CNC(=O)[C@H](C)NC(=O)[C@H]1C[C@H](Cc2ccc(-c3ccccc3)cc2)CN1
Solution: 3.3

Problem: Indicate the recorded van der Waals contact distance, VAL 653 CG1 to compound atom value for this compound: Cc1cccc([C@H]2CN[C@@H](C(=O)N[C@@H](C)C(=O)NCc3ccc(N)nc3C)C2)c1 [compound 1257, Dihydrochloride]
Solution: 3.36

---

Ligand-pharmacophore element distance, pharmacophore element CA5 reference
target: MASP-2 CCP2-SP (Homo sapiens (Human)); test: MASP-2 co-crystallization, X-ray crystallography and structure analysis (H-bonds, van der Waals contacts); conditions: Table A4-1; element CA5
Counter-ions that a name gives are not always drawn.
Answer with the value's number alone.

Some compounds with recorded Ligand-pharmacophore element distance, pharmacophore element CA5:
{"compound": "Cc1nc(N)ccc1CNC(=O)[C@H](C)NC(=O)[C@H]1C[C@@H](c2cccc3ccccc23)CCN1.Cl.Cl [1297_2]", "system": "MASP-2 CCP2-SP (Homo sapiens (Human))", "meas_value": 0}
{"compound": "Cc1nc(N)ccc1CNC(=O)[C@H](C)NC(=O)[C@H]1C[C@@H](c2cccc3ccccc23)CCN1.Cl.Cl [1297_4]", "system": "MASP-2 CCP2-SP (Homo sapiens (Human))", "meas_value": 0}
{"compound": "C[C@H](NC(=O)[C@H]1C[C@@H](c2ccccc2)CCN1)C(=O)NCc1cc(Cl)ccc1O.Cl [1078_12]", "system": "MASP-2 CCP2-SP (Homo sapiens (Human))", "meas_value": 0}
{"compound": "C[C@H](NC(=O)[C@H]1C[C@H](Cc2ccccc2)CN1)C(=O)NCc1ccc(C(=N)N)cc1.Cl.Cl [1306_1]", "system": "MASP-2 CCP2-SP (Homo sapiens (Human))", "meas_value": 0}
{"compound": "Cc1nc(N)ccc1CNC(=O)[C@H](C)NC(=O)[C@H]1C[C@H](Cc2cc(-c3ccccc3)cs2)CN1 [compound 1399, Dihydrochloride]", "system": "MASP-2 CCP2-SP (Homo sapiens (Human))", "meas_value": 0}
{"compound": "Cc1nc(N)ccc1CNC(=O)[C@H](C)NC(=O)[C@H]1C[C@@H](c2ccccc2)CCN1 [compound 1253, Dihydrochloride]", "system": "MASP-2 CCP2-SP (Homo sapiens (Human))", "meas_value": 0}
{"compound": "Cc1cccc([C@H]2CN[C@@H](C(=O)N[C@@H](C)C(=O)NCc3ccc(N)nc3C)C2)c1 [compound 1257, Dihydrochloride]", "system": "MASP-2 CCP2-SP (Homo sapiens (Human))", "meas_value": 1.2}
{"compound": "CC(NC(=O)C1CC(Cc2ccccc2)CN1)C(=O)NCc1cnc2c(c1)c(Cl)cn2C.Cl.Cl (stereo not shown) [1450_B]", "system": "MASP-2 CCP2-SP (Homo sapiens (Human))", "meas_value": 0}

Problem: Indicate the recorded Ligand-pharmacophore element distance, pharmacophore element CA5 value for this compound: Cc1nc(N)ccc1CNC(=O)[C@H](C)NC(=O)[C@H]1C[C@H](Cc2ccccc2Br)CN1.O=C(O)C(F)(F)F.O=C(O)C(F)(F)F [1372_B]
Solution: 0

Problem: Indicate the recorded Ligand-pharmacophore element distance, pharmacophore element CA5 value for this compound: C[C@H](NC(=O)C1C[C@@H](c2ccccc2)CCN1)C(=O)NCc1ccc(C(=N)N)cc1 (stereo in doubt)
Solution: 0

Problem: Indicate the recorded Ligand-pharmacophore element distance, pharmacophore element CA5 value for this compound: N=C(N)c1ccc(CNC(=O)[C@@H]2CCN2C(=O)[C@H]2Cc3ccccc3CN2)cc1
Solution: 0.98

Problem: Indicate the recorded Ligand-pharmacophore element distance, pharmacophore element CA5 value for this compound: CC(NC(=O)C(CCc1ccccc1)NCCCc1ccc(O)cc1)C(=O)NCc1ccc(C(=N)N)cc1.Cl.Cl (stereo not shown)
Solution: 0

Problem: Indicate the recorded Ligand-pharmacophore element distance, pharmacophore element CA5 value for this compound: C[C@H](NC(=O)[C@H](N)CCCc1ccccc1)C(=O)NCc1ccc(C(=N)N)cc1.Cl.Cl [1042_1]
Solution: 0

---

target: MASP-2 CCP2-SP (Homo sapiens (Human), UniProt O00187); assay: MASP-2 co-crystallization, X-ray crystallography and structure analysis (H-bonds, van der Waals contacts); settings: Table A6-2 pharmacophore angle
Sequence (O00187 445-686): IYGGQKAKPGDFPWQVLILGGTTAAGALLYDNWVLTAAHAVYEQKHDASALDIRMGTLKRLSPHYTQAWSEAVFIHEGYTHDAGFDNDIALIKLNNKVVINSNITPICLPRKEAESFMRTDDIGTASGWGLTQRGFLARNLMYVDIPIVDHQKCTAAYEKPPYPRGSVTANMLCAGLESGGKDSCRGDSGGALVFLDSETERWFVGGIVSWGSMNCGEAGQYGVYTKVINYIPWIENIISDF
Sequence (O00187 364-432 partner): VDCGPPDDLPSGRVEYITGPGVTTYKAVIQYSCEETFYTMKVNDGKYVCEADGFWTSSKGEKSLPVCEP
measured_property: a(O1, O2, N2)
Answer with the value's number alone.

{"molecule": "Cc1nc(N)ccc1CNC(=O)C(C)NC(=O)C1CC(c2cccc3ccccc23)CCN1.Cl.Cl (stereo not drawn) [1297_1]", "system": "MASP-2 CCP2-SP (Homo sapiens (Human), UniProt O00187)", "meas_value": 143.88}

Problem: Indicate the recorded a(O1, O2, N2) value for this molecule: CC(NC(=O)C1CC(Cc2ccccc2)CN1)C(=O)NCc1cnc2c(c1)c(Cl)cn2C.Cl.Cl (stereo not drawn) [1450_B]
Solution: 138.89

Problem: Indicate the recorded a(O1, O2, N2) value for this molecule: CC(NC(=O)C1CC(Cc2ccccc2)CN1)C(=O)NCc1cnc2c(c1)c(Cl)cn2C.Cl.Cl (mixture of isomers) [1450_A]
Solution: 139.62

---

d(O2,N2) reference
Biological target: MASP-2 CCP2-SP (Homo sapiens (Human), UniProt O00187)
Test: MASP-2 co-crystallization, X-ray crystallography and structure analysis (H-bonds, van der Waals contacts)
Conditions: Table A5-2 pharmacophore distance, S3/S4 region
Excerpt: This example illustrates the preparation of recombinant MASP-2 protein, based on UniProt O00187, human mannan-binding lectin serine protease 2. Expression constructs for human MASP-2 CCP2-SP and CCP2-SP-6HIS were generated for recombinant expression in E. coli cells. […]
Where a name gives a salt, the structure may show the parent alone.

Some molecules with recorded d(O2,N2):
{"molecule": "Cc1nc(N)ccc1CNC(=O)[C@H](C)NC(=O)[C@H]1C[C@H](Cc2cc(Cl)cc(Cl)c2)CN1 [compound 1435, Dihydrochloride]", "d(O2,N2)": 2.62}
{"molecule": "Cc1nc(N)ccc1CNC(=O)[C@H](C)NC(=O)[C@H]1C[C@H](Cc2ccccc2Br)CN1.O=C(O)C(F)(F)F.O=C(O)C(F)(F)F [1372_A]", "d(O2,N2)": 2.66}
{"molecule": "C[C@H](NC(=O)[C@H]1C[C@@H](c2ccccc2)CCN1)C(=O)NCc1cnc2[nH]cc(Cl)c2c1", "d(O2,N2)": 2.65}

Problem: Indicate the recorded d(O2,N2) value for this molecule: Cc1cc(Cl)cc(CNC(=O)[C@H](C)NC(=O)[C@H]2C[C@H](Cc3ccccc3)CN2)c1O
Solution: 2.81

Problem: Indicate the recorded d(O2,N2) value for this molecule: C[C@H](NC(=O)[C@H](N)C1Cc2ccccc2C1)C(=O)NCc1ccc2nc(N)[nH]c2c1
Solution: 2.67

Problem: Indicate the recorded d(O2,N2) value for this molecule: N=C(N)c1ccc(CNC(=O)C(CF)NC(=O)[C@H](N)CCc2ccccc2)cc1 (stereo partly drawn) [compound 1050, Dihydrochloride]
Solution: 2.76

Where these numbers come from: patent US12195427B2
